- target.entity: Ras-related protein Rab7 wild type (dog)
- assay.text: Rab7 wildtype GTP binding inhibitors, SAR follow-up, biochemical, dog Rab7, bead multiplex flow cytometry, round 2 (AID 588631)
- measurement.setup: Bead-based multiplex flow cytometry, fluorescent GTP binding
pEC50: −log10 of the molar value.
Values of pEC50 greater than or equal to 7 map to y; values below map to n.

# molecule, class.label
data = [
    ("COc1cccc(C(=O)NC(=S)Nc2sc3c(c2C(=O)O)CC(C)(C)OC3)c1", "n"),
    ("Cc1cccc(C(=O)NC(=S)Nc2sc3c(c2C(=O)O)CC(C)(C)OC3)c1", "n"),
    ("CC1(C)Cc2c(sc(NC(=S)NC(=O)c3cccs3)c2C(=O)O)CO1", "y"),
    ("CC1(C)Cc2c(sc(NC(=S)NC(=O)c3ccccc3F)c2C(=O)O)CO1", "n"),
    ("CC1(C)Cc2c(sc(NC(=S)NC(=O)c3cccc(Br)c3)c2C(=O)O)CO1", "n"),
    ("CC1(C)Cc2c(sc(NC(=S)NC(=O)c3ccccc3Br)c2C(=O)O)CO1", "n"),
    ("Cc1ccccc1C(=O)NC(=S)Nc1sc2c(c1C(=O)O)CC(C)(C)OC2", "n"),
    ("CC1(C)Cc2c(sc(NC(=S)NC(=O)c3cccc(F)c3)c2C(=O)O)CO1", "n"),
    ("COc1ccccc1C(=O)NC(=S)Nc1sc2c(c1C(=O)O)CC(C)(C)OC2", "n"),
    ("COc1ccc(C(=O)NC(=S)Nc2sc3c(c2C(=O)O)CC(C)(C)OC3)cc1", "n"),
    ("O=C(NC(=S)Nc1sc2c(c1C(=O)O)CC1(CCCC1)OC2)c1ccccc1", "y"),
    ("CC1(C)CCc2sc(NC(=S)NC(=O)c3ccccc3)c(C(=O)O)c2C1", "y"),
    ("CC1(C)Cc2c(sc(NC(=S)NC(=O)c3ccc(Br)cc3)c2C(=O)O)CO1", "n"),
    ("CC1(C)Cc2c(sc(NC(=S)NC(=O)C3CCCCC3)c2C(=O)O)CO1", "n"),
    ("CCC1(C)Cc2c(sc(NC(=S)NC(=O)c3ccccc3)c2C(=O)O)CO1 (stereo not drawn)", "y"),
]
